Listing of entries alongside the reported ECL signal.
biological target: T1, rHuman Notch-1/Fc Chimera, CF (human, UniProt P46531 19-526); assay: ECL Multispot (MSD) assay; antigen spotted on plate, Fab in solution;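 note: fab bound 1 h at 20 °C, detected by TAG-labelled antibody electrochemiluminescence, signal relative to each well's blank, ratio of 4 or more marks a hit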
T1 construct: Bought from R&D Systems; not shown: Fc of the bought chimera
Enter the number alone.

binder | ECL signal
Fab VH1-46_IGHD6-6*01_IGHJ1*01 S102A/S103P/S104F/H111F (APFF) & L6_IGKJ1*01 S28A (Fab, V domains shown, Fab made in E. coli; the variable domains were cloned into Plasmid A (CH1, His and Flag tags) and Plasmid C (kappa CL); also called APFF / S28A) VH: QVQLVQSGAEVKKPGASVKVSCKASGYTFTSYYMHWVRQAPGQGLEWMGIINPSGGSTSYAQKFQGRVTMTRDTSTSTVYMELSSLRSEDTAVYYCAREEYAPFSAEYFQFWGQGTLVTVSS VL: EIVLTQSPATLSLSPGERATLSCRASQAVSSYLAWYQQKPGQAPRLLIYDASNRATGIPARFSGSGSGTDFTLTISSLEPEDFAVYYCQQRSNWPPWTFGQGTKVEIKR | 440

Q: What ECL signal value was documented for this binder, Fab VH1-46_IGHD6-6*01_IGHJ1*01 S102A/S103P/S104F/H111F (APFF) & L6_IGKJ1*01 S28F (Fab, V domains shown, Fab made in E. coli; the variable domains were cloned into Plasmid A (CH1, His and Flag tags) and Plasmid C (kappa CL); also called APFF / S28F) VH: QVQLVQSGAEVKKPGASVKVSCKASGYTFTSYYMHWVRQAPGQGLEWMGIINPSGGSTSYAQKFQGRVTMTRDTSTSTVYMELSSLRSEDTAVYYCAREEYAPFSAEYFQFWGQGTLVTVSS VL: EIVLTQSPATLSLSPGERATLSCRASQFVSSYLAWYQQKPGQAPRLLIYDASNRATGIPARFSGSGSGTDFTLTISSLEPEDFAVYYCQQRSNWPPWTFGQGTKVEIKR ?
A: 367

Q: What ECL signal value was documented for this binder, Fab VH1-46_IGHD6-6*01_IGHJ1*01 S102A/S103P/S104F/H111F (APFF) & L6_IGKJ1*01 S28L (Fab, V domains shown, Fab made in E. coli; the variable domains were cloned into Plasmid A (CH1, His and Flag tags) and Plasmid C (kappa CL); also called APFF / S28L) VH: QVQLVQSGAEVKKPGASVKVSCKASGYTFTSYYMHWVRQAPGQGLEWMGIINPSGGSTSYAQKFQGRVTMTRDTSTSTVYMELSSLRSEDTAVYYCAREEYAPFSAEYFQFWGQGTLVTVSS VL: EIVLTQSPATLSLSPGERATLSCRASQLVSSYLAWYQQKPGQAPRLLIYDASNRATGIPARFSGSGSGTDFTLTISSLEPEDFAVYYCQQRSNWPPWTFGQGTKVEIKR ?
A: 392

Q: What ECL signal value was documented for this binder, Fab VH1-46_IGHD6-6*01_IGHJ1*01 S102A/S103P/S104F/H111F (APFF) & L6_IGKJ1*01 S28T (Fab, V domains shown, Fab made in E. coli; the variable domains were cloned into Plasmid A (CH1, His and Flag tags) and Plasmid C (kappa CL); also called APFF / S28T) VH: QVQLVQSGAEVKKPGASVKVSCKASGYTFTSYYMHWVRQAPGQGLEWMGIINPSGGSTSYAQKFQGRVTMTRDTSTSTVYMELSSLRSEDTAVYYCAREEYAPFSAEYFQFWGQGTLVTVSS VL: EIVLTQSPATLSLSPGERATLSCRASQTVSSYLAWYQQKPGQAPRLLIYDASNRATGIPARFSGSGSGTDFTLTISSLEPEDFAVYYCQQRSNWPPWTFGQGTKVEIKR ?
A: 249
